TGI values by entry
System: SF-539 CNS
Experiment: NCI tumour cell line growth inhibition, 48 h
property.label: TGI (µM)

{"columns": ["chem.smiles", "target.or.system", "property.label", "unit.abbrev", "inequality.symbol", "observed.result"],
 "data": [
  ["Cc1ccc(S(=O)(=O)NC(=O)Nc2cc(Cl)c(S(N)(=O)=O)cc2S(N)(=O)=O)cc1", "SF-539 CNS", "TGI", "µM", ">", 100],
  ["NC(=O)c1sc2nc3ccccc3n2c1N", "SF-539 CNS", "TGI", "µM", "=", 45.9],
  ["Cc1ccc(-n2c(-c3cc4c([nH]c5ccccc54)c(-c4cccc(O)c4)n3)n[nH]c2=S)cc1", "SF-539 CNS", "TGI", "µM", "=", 1.06],
  ["c1ccc2c(-c3csc(-c4c[nH]c5ccccc45)n3)c[nH]c2c1", "SF-539 CNS", "TGI", "µM", ">", 100],
  ["CC(=O)[CH-]C(C)=O.CC(=O)[CH-]C(C)=O.CC(=O)[CH-]C(C)=O.[Ga+3]", "SF-539 CNS", "TGI", "µM", ">", 100]
]}

###

System: SR leukemia
Test: NCI tumour cell line growth inhibition, 48 h; in the data active = GI50 below about 0.43 µM; inactive = the rest
Possible outcomes: active, inactive

{"columns": ["compound", "assigned.class"],
 "data": [
  ["COc1ccc2nc3cc(Cl)ccc3c(N3CCN(c4ccnc(N5CCN(C)CC5)n4)CC3)c2c1", "inactive"],
  ["COc1ccc(-c2c3c(N)c4c(nc3nc3c2c(C)nn3-c2ccccc2)CCCC4)cc1", "inactive"],
  ["CC(=O)OCC(CC[CH2][Sn]([Cl])([Cl])[c]1ccccc1)OC(C)=O (stereo not given)", "inactive"],
  ["COc1cc(C(=O)/C=C/c2c(C(F)(F)F)nc3ccccn23)cc(OC)c1OC", "inactive"],
  ["CC(C)N(Cc1ccc(F)cc1)c1ccc(CO)c(Cl)c1", "inactive"],
  ["Fc1ccc2nc(-c3nc(-c4ccccc4)n4ccccc34)[nH]c2c1", "inactive"],
  ["C[C@H]1CN(C2COC2)CCN1c1ccc(Nc2cc(-c3ccnc(N4CCn5c(cc6c5CC(C)(C)C6)C4=O)c3CO)cn(C)c2=O)nc1", "inactive"],
  ["NCc1ccc(-c2nc(-c3ccc(Cl)c(O)c3)c(-c3ccncc3)[nH]2)cc1", "inactive"],
  ["COc1cc(-c2ncn(/C=C\\c3nnco3)n2)cc(C(F)(F)F)c1", "active"],
  ["[Cl][Cu][Cl]", "inactive"],
  ["CC1CCN(CCOc2ccc(CNc3ccc4nc(CCC5CCCCC5)[nH]c4c3)cc2)CC1", "inactive"],
  ["N#Cc1c(NC(=O)c2ccccc2F)sc2c1CCCC2", "inactive"],
  ["S=C(NCc1ccc2c(c1)OCO2)N1CCN(c2ncnc3c2oc2ccccc23)CC1", "inactive"],
  ["CC1(C)[C@H](O)[C@H](F)C[C@@]2(C)Oc3ccc(C(=O)Nc4ccc5c(c4)NC(=O)C54CCN(CCCCC#N)CC4)cc3C[C@H]12", "active"],
  ["O=S(=O)(NCCCNc1cc(-c2cn(-c3ccccc3)nc2-c2cccc(O)c2)ccn1)c1ccc(F)cc1", "inactive"]
]}

###

Each entry below carries its recorded TGI.
System: KM20L2 colon
Test: NCI tumour cell line growth inhibition, 48 h

{"columns": ["compound", "TGI"],
 "data": [
  ["CCc1ccccc1NC(=O)CC1NC(=O)CS1 (stereo not given)", "> 100 µM"],
  ["O=C(c1c(O)cc(O)cc1O)C1Cc2ccccc21 (stereo not given)", "> 100 µM"],
  ["C=C1C=CC2(Br)OC3CC(C)(Cl)C(Br)CC13C2(C)C (stereo not given)", "49.7 µM"],
  ["C/C(=N\\NC(=O)C(N)=O)c1c(O)cc(C)oc1=O", "> 100 µM"],
  ["CC(=O)CC(=O)CCC(=O)Nc1cccc(C(F)(F)F)c1", "> 100 µM"],
  ["CSc1ccc2c(cc1=O)C(NC(=O)c1ccc(C#N)cc1)CCc1cc(O)c(O)c(O)c1-2 (stereo not given)", "45.5 µM"],
  ["CC(C)OC(=O)C1Cc2c([nH]c3ccccc23)C(c2ccccc2)N1 (stereo not given)", "> 100 µM"],
  ["O=C(Nc1nc2ncn(CCO)c2c(=O)[nH]1)c1ccccc1", "> 100 µM"],
  ["CN(C)CC(/C(Cc1ccccc1)=N\\NC(=S)NN)c1ccccc1 (stereo not given)", "> 100 µM"],
  ["Nc1nc2ncn(CC(O)CO)c2c(=O)[nH]1 (stereo not given)", "> 100 µM"]
]}
